Just for reference, patent US6962942B2 is where these values come from.

subjectOfTest: Human α-thrombin (Homo sapiens)
pKi: −log10 of the molar value.

| givenSmiles | pKi |
| --- | --- |
| COc1ccc(S(=O)(=O)N[C@H]2CCCN(CC(=O)NCCONC(=N)N)C2=O)cc1 | 5.92 |

---

subjectOfTest: human factor Xa (Homo sapiens, UniProt P00742)
Sequence (P00742 235-488 limits assumed): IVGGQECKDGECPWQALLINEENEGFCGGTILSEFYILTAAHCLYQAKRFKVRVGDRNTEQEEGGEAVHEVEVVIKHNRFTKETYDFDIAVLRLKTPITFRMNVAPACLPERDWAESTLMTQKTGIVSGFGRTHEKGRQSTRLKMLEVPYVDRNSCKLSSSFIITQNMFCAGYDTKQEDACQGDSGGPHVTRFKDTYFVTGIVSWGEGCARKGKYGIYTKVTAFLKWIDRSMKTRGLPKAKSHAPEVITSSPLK
Sequence (P00742 41-179 partner limits assumed): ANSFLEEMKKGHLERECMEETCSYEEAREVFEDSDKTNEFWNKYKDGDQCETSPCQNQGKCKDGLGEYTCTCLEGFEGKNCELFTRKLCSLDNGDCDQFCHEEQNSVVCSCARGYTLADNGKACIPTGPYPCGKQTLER
pKi: −log10 of the molar value.

| molecule | subjectOfTest | pKi |
| --- | --- | --- |
| COc1ccc(S(=O)(=O)N[C@H]2CCCN(CC(=O)NCCONC(=N)N)C2=O)cc1 [Example 11] | human factor Xa (Homo sapiens, UniProt P00742) | 5.68 |
